tested on: SNB-75; assay: Growth inhibition of human SNB75 cells at 10 uM after 48 hrs by SRB assay relative to control; format: functional; settings: SNB-75, 48 h, read-out: GI
Label Satisfied when inhibition of growth at 10 µM is at or above 20%; otherwise label Not satisfied.

Determine whether measured inhibition of growth at 10 µM meets or exceeds 20% for COc1cc2oc(-c3cccc(C(=O)Nc4ccccc4)c3)cc(=O)c2c(O)c1OC
Satisfied

Determine whether measured inhibition of growth at 10 µM meets or exceeds 20% for COc1cc2oc(-c3cccc(C(=O)Nc4ccc5c(c4)OCO5)c3)cc(=O)c2c(OC)c1OC
Not satisfied

Determine whether measured inhibition of growth at 10 µM meets or exceeds 20% for COc1cccc(C(=O)Nc2cccc(-c3cc(=O)c4c(O)c(OC)c(OC)cc4o3)c2)c1
Not satisfied

Determine whether measured inhibition of growth at 10 µM meets or exceeds 20% for COc1cccc(C(=O)Nc2cccc(-c3cc(=O)c4c(OC)c(OC)c(OC)cc4o3)c2)c1
Satisfied

Determine whether measured inhibition of growth at 10 µM meets or exceeds 20% for COc1cccc(NC(=O)c2cccc(-c3cc(=O)c4c(OC)c(OC)c(OC)cc4o3)c2)c1
Not satisfied

Determine whether measured inhibition of growth at 10 µM meets or exceeds 20% for COc1cc2oc(-c3cccc(NC(=O)c4ccccc4)c3)cc(=O)c2c(OC)c1OC
Satisfied

Determine whether measured inhibition of growth at 10 µM meets or exceeds 20% for COc1cc2oc(-c3cccc(C(=O)Nc4ccccc4)c3)cc(=O)c2c(OC)c1OC
Not satisfied

Determine whether measured inhibition of growth at 10 µM meets or exceeds 20% for COc1ccc(C(=O)Nc2cccc(-c3cc(=O)c4c(OC)c(OC)c(OC)cc4o3)c2)cc1
Satisfied

Determine whether measured inhibition of growth at 10 µM meets or exceeds 20% for Cc1ccc(NC(=O)c2ccc(CN3CCN(C)CC3)cc2)cc1Nc1nccc(-c2cccnc2)n1
Not satisfied

Determine whether measured inhibition of growth at 10 µM meets or exceeds 20% for COc1ccccc1C(=O)Nc1cccc(-c2cc(=O)c3c(OC)c(OC)c(OC)cc3o2)c1
Not satisfied

Determine whether measured inhibition of growth at 10 µM meets or exceeds 20% for COc1ccccc1NC(=O)c1cccc(-c2cc(=O)c3c(O)c(OC)c(OC)cc3o2)c1
Not satisfied

Determine whether measured inhibition of growth at 10 µM meets or exceeds 20% for COc1cc(NC(=O)c2cccc(-c3cc(=O)c4c(O)c(OC)c(OC)cc4o3)c2)cc(OC)c1OC
Satisfied

Determine whether measured inhibition of growth at 10 µM meets or exceeds 20% for COc1ccccc1C(=O)Nc1cccc(-c2cc(=O)c3c(O)c(OC)c(OC)cc3o2)c1
Not satisfied

Determine whether measured inhibition of growth at 10 µM meets or exceeds 20% for COc1cccc(NC(=O)c2cccc(-c3cc(=O)c4c(O)c(OC)c(OC)cc4o3)c2)c1
Not satisfied

Determine whether measured inhibition of growth at 10 µM meets or exceeds 20% for COc1cc2oc(-c3cccc(NC(=O)c4ccc5c(c4)OCO5)c3)cc(=O)c2c(OC)c1OC
Satisfied

Determine whether measured inhibition of growth at 10 µM meets or exceeds 20% for COc1ccc(C(=O)Nc2cccc(-c3cc(=O)c4c(O)c(OC)c(OC)cc4o3)c2)cc1
Satisfied

Determine whether measured inhibition of growth at 10 µM meets or exceeds 20% for COc1cc(NC(=O)c2cccc(-c3cc(=O)c4c(OC)c(OC)c(OC)cc4o3)c2)cc(OC)c1OC
Satisfied

* * *

Please provide measured inhibition of growth at 10 µM for the entries that follow.
tested on: U-251; assay: Growth inhibition of human U251 cells at 10 uM after 48 hrs by SRB assay relative to control; format: functional; details: U-251, 48 h, read-out: GI
# output: bare number, implied unit %

Bench note: what inhibition of growth at 10 µM did COc1ccc(NC(=O)c2cccc(-c3cc(=O)c4c(OC)c(OC)c(OC)cc4o3)c2)cc1 show?
13.9

Bench note: what inhibition of growth at 10 µM did COc1cc2oc(-c3cccc(C(=O)Nc4ccccc4)c3)cc(=O)c2c(O)c1OC show?
63.1

Bench note: what inhibition of growth at 10 µM did COc1ccc(C(=O)Nc2cccc(-c3cc(=O)c4c(OC)c(OC)c(OC)cc4o3)c2)cc1 show?
27.7

Bench note: what inhibition of growth at 10 µM did COc1cc2oc(-c3cccc(C(=O)Nc4ccccc4)c3)cc(=O)c2c(OC)c1OC show?
9.89

Bench note: what inhibition of growth at 10 µM did COc1ccccc1C(=O)Nc1cccc(-c2cc(=O)c3c(OC)c(OC)c(OC)cc3o2)c1 show?
61

Bench note: what inhibition of growth at 10 µM did COc1cc(NC(=O)c2cccc(-c3cc(=O)c4c(OC)c(OC)c(OC)cc4o3)c2)cc(OC)c1OC show?
55.1

Bench note: what inhibition of growth at 10 µM did COc1cccc(NC(=O)c2cccc(-c3cc(=O)c4c(OC)c(OC)c(OC)cc4o3)c2)c1 show?
37.9

Bench note: what inhibition of growth at 10 µM did COc1cc2oc(-c3cccc(NC(=O)c4ccc5c(c4)OCO5)c3)cc(=O)c2c(OC)c1OC show?
67.5

Bench note: what inhibition of growth at 10 µM did COc1cc2oc(-c3cccc(C(=O)Nc4ccc5c(c4)OCO5)c3)cc(=O)c2c(O)c1OC show?
44.2

Bench note: what inhibition of growth at 10 µM did COc1cccc(C(=O)Nc2cccc(-c3cc(=O)c4c(OC)c(OC)c(OC)cc4o3)c2)c1 show?
36.2

Bench note: what inhibition of growth at 10 µM did COc1ccccc1NC(=O)c1cccc(-c2cc(=O)c3c(OC)c(OC)c(OC)cc3o2)c1 show?
11

Bench note: what inhibition of growth at 10 µM did COc1cccc(C(=O)Nc2cccc(-c3cc(=O)c4c(O)c(OC)c(OC)cc4o3)c2)c1 show?
28.4

Bench note: what inhibition of growth at 10 µM did COc1cc2oc(-c3cccc(NC(=O)c4ccccc4)c3)cc(=O)c2c(OC)c1OC show?
16.3

* * *

tested on: SF-268; assay: Growth inhibition of human SF268 cells at 10 uM after 48 hrs by SRB assay relative to control; format: functional; details: SF-268, 48 h, read-out: GI
Please provide measured inhibition of growth at 10 µM for the entries that follow.
# output: bare number, implied unit %

Bench note: what inhibition of growth at 10 µM did COc1cc2oc(-c3cccc(NC(=O)c4ccc5c(c4)OCO5)c3)cc(=O)c2c(O)c1OC show?
32.5

Bench note: what inhibition of growth at 10 µM did COc1cccc(C(=O)Nc2cccc(-c3cc(=O)c4c(OC)c(OC)c(OC)cc4o3)c2)c1 show?
42.6

Bench note: what inhibition of growth at 10 µM did COc1ccc(C(=O)Nc2cccc(-c3cc(=O)c4c(O)c(OC)c(OC)cc4o3)c2)cc1 show?
13.9

Bench note: what inhibition of growth at 10 µM did COc1cc2oc(-c3cccc(NC(=O)c4ccccc4)c3)cc(=O)c2c(OC)c1OC show?
27.7

Bench note: what inhibition of growth at 10 µM did COc1ccccc1C(=O)Nc1cccc(-c2cc(=O)c3c(O)c(OC)c(OC)cc3o2)c1 show?
8.58

* * *

tested on: ACHN; assay: Growth inhibition of human ACHN cells at 10 uM after 48 hrs by SRB assay relative to control; assay type: functional; conditions: read-out: GI
Label class 1 when inhibition of growth at 10 µM is at or above 40%; otherwise label class 0.

Determine whether measured inhibition of growth at 10 µM meets or exceeds 40% for COc1cc(NC(=O)c2cccc(-c3cc(=O)c4c(O)c(OC)c(OC)cc4o3)c2)cc(OC)c1OC
class 1

Determine whether measured inhibition of growth at 10 µM meets or exceeds 40% for COc1cccc(C(=O)Nc2cccc(-c3cc(=O)c4c(OC)c(OC)c(OC)cc4o3)c2)c1
class 1

Determine whether measured inhibition of growth at 10 µM meets or exceeds 40% for COc1ccc(C(=O)Nc2cccc(-c3cc(=O)c4c(O)c(OC)c(OC)cc4o3)c2)cc1
class 0

Determine whether measured inhibition of growth at 10 µM meets or exceeds 40% for COc1cc2oc(-c3cccc(C(=O)Nc4ccc5c(c4)OCO5)c3)cc(=O)c2c(OC)c1OC
class 0

Determine whether measured inhibition of growth at 10 µM meets or exceeds 40% for COc1cc2oc(-c3cccc(NC(=O)c4ccc5c(c4)OCO5)c3)cc(=O)c2c(OC)c1OC
class 1

Determine whether measured inhibition of growth at 10 µM meets or exceeds 40% for COc1cc2oc(-c3cccc(C(=O)Nc4ccccc4)c3)cc(=O)c2c(O)c1OC
class 1

Determine whether measured inhibition of growth at 10 µM meets or exceeds 40% for COc1ccccc1NC(=O)c1cccc(-c2cc(=O)c3c(O)c(OC)c(OC)cc3o2)c1
class 0

Determine whether measured inhibition of growth at 10 µM meets or exceeds 40% for COc1cc2oc(-c3cccc(NC(=O)c4ccc5c(c4)OCO5)c3)cc(=O)c2c(O)c1OC
class 0

Determine whether measured inhibition of growth at 10 µM meets or exceeds 40% for COc1cccc(NC(=O)c2cccc(-c3cc(=O)c4c(O)c(OC)c(OC)cc4o3)c2)c1
class 0

Determine whether measured inhibition of growth at 10 µM meets or exceeds 40% for Cc1ccc(NC(=O)c2ccc(CN3CCN(C)CC3)cc2)cc1Nc1nccc(-c2cccnc2)n1
class 0

Determine whether measured inhibition of growth at 10 µM meets or exceeds 40% for COc1ccc(C(=O)Nc2cccc(-c3cc(=O)c4c(OC)c(OC)c(OC)cc4o3)c2)cc1
class 1

Determine whether measured inhibition of growth at 10 µM meets or exceeds 40% for COc1ccccc1NC(=O)c1cccc(-c2cc(=O)c3c(OC)c(OC)c(OC)cc3o2)c1
class 1

Determine whether measured inhibition of growth at 10 µM meets or exceeds 40% for COc1cc(NC(=O)c2cccc(-c3cc(=O)c4c(OC)c(OC)c(OC)cc4o3)c2)cc(OC)c1OC
class 1

Determine whether measured inhibition of growth at 10 µM meets or exceeds 40% for COc1cc2oc(-c3cccc(NC(=O)c4ccccc4)c3)cc(=O)c2c(OC)c1OC
class 0

Determine whether measured inhibition of growth at 10 µM meets or exceeds 40% for COc1ccccc1C(=O)Nc1cccc(-c2cc(=O)c3c(OC)c(OC)c(OC)cc3o2)c1
class 1

Determine whether measured inhibition of growth at 10 µM meets or exceeds 40% for COc1ccccc1C(=O)Nc1cccc(-c2cc(=O)c3c(O)c(OC)c(OC)cc3o2)c1
class 0

Determine whether measured inhibition of growth at 10 µM meets or exceeds 40% for COc1ccc(NC(=O)c2cccc(-c3cc(=O)c4c(OC)c(OC)c(OC)cc4o3)c2)cc1
class 0

Determine whether measured inhibition of growth at 10 µM meets or exceeds 40% for COc1ccc(NC(=O)c2cccc(-c3cc(=O)c4c(O)c(OC)c(OC)cc4o3)c2)cc1
class 0
